Values from patent US8173636B2

Tested on: S. aureus ATCC 29213
endpoint: MIC (mg/L)
The response must be a number in mg/L with no trailing unit.

# compound, unit.string, measured
rows = [
    ("COc1c(N2CCNCC2)c(F)cc2c(=O)c3c(O)c(C(=O)C(C)(C)C)sc3n(C3CC3)c12", "mg/L", 8),
]

Turning now to a further record.
Observed MIC, S. aureus ATCC 29213, CN[C@@H](C)[C@@H]1CCN(c2c(F)cc3c(=O)c4c(O)c(C#N)sc4n(C4CC4)c3c2OC)C1 : 0.03

----------
Recorded MIC values (S. aureus ATCC 29213) are given below.
The response must be a number in µg/mL with no trailing unit.

A selection of reference data follows.
# compound, unit.string, MIC
measured = [
    ("COc1c(N2CC[C@@H](C(C)(C)NCCC#N)C2)c(F)cc2c(=O)c3c(n(C4CC4)c12)SC(C#N)C3=O (stereo partly shown) [Cmp 49]", "µg/mL", 0.06),
    ("COC(=O)c1sc2c(c1O)c(=O)c1cc(F)c(N3CC[C@@H](C(C)(C)N)C3)c(OC)c1n2C1CC1 [Cmp 5]", "µg/mL", 2),
    ("COc1c(N2CC[C@@H]([C@H](C)N)C2)c(F)cc2c(=O)c3c(O)c(C#N)sc3n(C3CC3)c12 [Cmp 11]", "µg/mL", 0.02),
]

Turning now to a further record.
Observed MIC, S. aureus ATCC 29213, COc1c(N2CC3CC2CN3)c(F)cc2c(=O)c3c(O)c(C#N)sc3n(C3CC3)c12 (stereo not shown) [Cmp 41] : 0.13
